B1: ZNF649 (parent)
chain: YHTGKTPFVCPECGQPCSQKSGLI

Variants of: B1
Assay: protein stability index of a GFP-peptide fusion (GPS, HEK-293T) (PSI 1-6); higher = more stable;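 further: lentivirally expressed fusions sorted by FACS into six bins by GFP to DsRed ratio, PSI derived from sequencing read proportions per bin multiplied by bin number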
Details: c terminus: a fixed tail appended
Assign class by protein stability index: not lower than 2 means YES; lower than 2 means NO.

These solved cases illustrate the format of a correct answer.
residue codes | discrete label
YHTGKTPFVCPECGQSCSQKSGLI [P16S] | NO
YHTGKTPFVCPECGQPCHQKSGLI [S18H] | NO
NHTGKTPFVCPECGQPCSQKSGLI [Y1N] | YES

**Query** Quick check: does YHTGKTPFVCPECGQPCSQKSGLH [I24H] have protein stability index greater than or equal to 2?
**Result** YES

**Query** Quick check: does YHTTKTPFVCPECGQPCSQKSGLI [G4T] have protein stability index greater than or equal to 2?
**Result** YES

**Query** Quick check: does YHTGKTPFVCPECGQPCSQKLGLI [S21L] have protein stability index greater than or equal to 2?
**Result** YES
